All figures here come from patent US20190053492A1.

# protocol: log P by HPLC on reversed-phase column (C 18), EEC Directive 79/831 Annex V.A8
# Type: physicochemical
# particulars: log P (HCOOH), acidic range pH 2.7, 0.1% aqueous formic acid and acetonitrile; reversed-phase column (C 18), 55° C.
result-type: LOGP_HCOOH

Use these answered entries as a reference point.
O=C(NCc1ccc(Cl)nc1)c1cc(-c2ccc(Cl)cc2)cc(NC(=O)C2CC2)n1    3.53
N#Cc1ccc(CNC(=O)c2cc(-c3ccc(OC(F)(F)C(F)C(F)(F)F)cc3)cc(NC(=O)C3CC3)n2)cc1 (centres unmarked)    4.03
O=C(NC1CC1)c1cc(-c2ccc(SC(F)(F)F)cc2)cc(NC(=O)C2CC2)n1    3.86
N#Cc1ccc(CNC(=O)c2cc(-c3ccc(C(F)(F)F)cc3)cc(NC(=O)c3ccc(Cl)cc3)n2)cc1    4.77
O=C(NCc1ccc(C(F)(F)F)cc1)c1cc(-c2ccc(C(F)(F)F)cc2)cc(NC(=O)C2CC2)n1    4.62
O=C(NOCC1CC1)c1cc(-c2ccc(OC(F)(F)F)cc2)cc(NC(=O)C2CC2)n1    3.59

A = O=C(NCc1ccc(C(F)(F)F)cc1F)c1cc(-c2ccc(C(F)(F)F)cc2)cc(NC(=O)C2CC2)n1
B = O=C(NCc1ccncc1)c1cc(-c2ccc(C(F)(F)C(F)(F)F)c(F)c2)cc(NC(=O)C2CC2)n1
INPUT: Hey, which is lower on measured LOGP_HCOOH, A or B ? Return value: the label identifying the chosen record.
OUTPUT: B
(B: 2.17, A: 4.68)
